Biological target: HCV NS3-4A serine protease (full-length NS3-4A protein, genotype 1a, strain HCV-1) (Hepatitis C virus genotype 1a)
Construct: using the full-length NS3-4A protein (genotype 1a, strain HCV-1)
Assay: HCV NS3-4A protease assay
Assay type: biochemical
Settings: Protease IC50
pIC50: −log10 of the molar value.
Would you mind labelling by pIC50? At or over 8 is criterion met, under is criterion not met.

compound	assigned label
C=CCC1(S(=O)(=O)NC(=O)[C@@]2(NC(=O)[C@@H]3C[C@@]4(CN3C(=O)[C@@H](NC(=O)[C@@H](NC(=O)[C@@H]3CCCCN3C(C)C)C3CCCCC3)C(C)(C)C)C(C)(C)C43CCC3)C[C@H]2C=C)CC1 [Compound 144]	criterion met
CC(C)(C)[C@H](NC(=O)[C@@H](NC(=O)C1CCCCN1CCF)C1CCCCC1)C(=O)N1C[C@]2(C[C@H]1C(=O)N[C@]1(C(=O)NS(=O)(=O)C3CC3)CC=CCC1)C(C)(C)C21CCC1 (stereo partly drawn) [Compound 27]	criterion not met
CCCC(NC(=O)[C@@H]1C[C@@]2(CN1C(=O)C(NC(=O)[C@@H](NC(=O)C(C)(C)N1CCCC1)C1CCCCC1)C(C)(C)C)C(C)(C)C21CCC1)C(=O)NS(=O)(=O)C1CC1 (stereo partly drawn) [Compound 2]	criterion not met
CCCC1(S(=O)(=O)NC(=O)[C@@]2(NC(=O)[C@@H]3C[C@@]4(CN3C(=O)[C@@H](NC(=O)[C@@H](NC(=O)[C@@H]3CCCCN3C(C)C)C3CCCCC3)C(C)(C)C)C(C)(C)C43CCC3)C[C@H]2CC)CC1 [Compound 77]	criterion met
C=C[C@@H]1C[C@]1(NC(=O)[C@@H]1C[C@@]2(CN1C(=O)[C@@H](NC(=O)[C@@H](NC(=O)c1ncn[nH]1)C(C)(C)C)C(C)(C)C)C(C)(C)C21CCC1)C(=O)NS(=O)(=O)C1CC1 [Compound 41]	criterion not met
C=C[C@H]1C[C@@]1(NC(=O)[C@@H]1C[C@@]2(CN1C(=O)[C@@H](NC(=O)[C@@H](NC(=O)C(C)(C)N1CCN(C(C)(C)C)CC1)C1CCCCC1)C(C)(C)C)C(C)(C)C21CCC1)C(=O)NS(=O)(=O)C1CC1 [Compound 102]	criterion met

* * *

Below: a set of entries, each annotated with reported solubility at 24 h.
Test: Measurement of thermodynamic solubility
Format: physicochemical
Details: pH 1, simulated gastric fluid, thermodynamic from solid; pH of about 1; read-out: solubility in water
measurement type: solubility at 24 h

compound	observed value
CCCC1(S(=O)(=O)NC(=O)[C@@]2(NC(=O)[C@@H]3C[C@@]4(CN3C(=O)[C@@H](NC(=O)[C@@H](NC(=O)[C@@H]3CCCCN3CC)C3CCCCC3)C(C)(C)C)C(C)(C)C43CCC3)C[C@H]2CC)CC1 [Compound 76]	≥ 100 µM
C=C[C@@H]1C[C@]1(NC(=O)[C@@H]1C[C@@]2(CN1C(=O)[C@@H](NC(=O)[C@@H](NC(=O)[C@@H]1CCCCN1CC)C1CCCCC1)C(C)(C)C)C(C)(C)C21CCC1)C(=O)NS(=O)(=O)C1(CCC)CC1 [Compound 67]	≥ 100 µM
CC[C@@H]1C[C@]1(NC(=O)[C@@H]1C[C@@]2(CN1C(=O)[C@@H](NC(=O)[C@@H](NC(=O)[C@@H]1CCCN1CC)C1CCCCC1)C(C)(C)C)C(C)(C)C21CCC1)C(=O)NS(=O)(=O)C1(C)CC1 [Compound 81]	≥ 100 µM
C=C[C@@H]1C[C@]1(NC(=O)[C@@H]1C[C@@]2(CN1C(=O)[C@@H](NC(=O)[C@@H](NC(=O)[C@@H]1CCCN1CC)C1CCCCC1)C(C)(C)C)C(C)(C)C21CCC1)C(=O)NS(=O)(=O)C1(C)CC1 [Compound 71]	≥ 100 µM
C=C[C@@H]1C[C@]1(NC(=O)[C@@H]1C[C@@]2(CN1C(=O)[C@@H](NC(=O)[C@@H](NC(=O)[C@@H]1CCCCN1C(C)C)C1CCCCC1)C(C)(C)C)C(C)(C)C21CCC1)C(=O)NS(=O)(=O)C1(CCC)CC1 [Compound 68]	≥ 100 µM
CC[C@@H]1C[C@]1(NC(=O)[C@@H]1C[C@@]2(CN1C(=O)[C@@H](NC(=O)[C@@H](NC(=O)[C@@H]1CCCN1C(C)C)C1CCCCC1)C(C)(C)C)C(C)(C)C21CCC1)C(=O)NS(=O)(=O)C1(C)CC1 [Compound 82]	≥ 100 µM
C=C[C@@H]1C[C@]1(NC(=O)[C@@H]1C[C@@]2(CN1C(=O)[C@@H](NC(=O)[C@@H](NC(=O)[C@@H]1CCCN1CC)C1CCCCC1)C(C)(C)C)C(C)(C)C21CCC1)C(=O)NS(=O)(=O)C1(CCC)CC1 [Compound 69]	≥ 100 µM
CC[C@@H]1C[C@]1(NC(=O)[C@@H]1C[C@@]2(CN1C(=O)[C@@H](NC(=O)[C@@H](NC(=O)[C@@H]1CCCCN1CC)C1CCCCC1)C(C)(C)C)C(C)(C)C21CCC1)C(=O)NS(=O)(=O)C1(C)CC1 [Compound 83]	≥ 100 µM

* * *

Target: HCV NS3-4A serine protease (full-length NS3-4A protein, genotype 1a, strain HCV-1) (Hepatitis C virus genotype 1a, UniProt P26664)
Construct: using the full-length NS3-4A protein (genotype 1a, strain HCV-1)
Sequence (P26664 1658-1711): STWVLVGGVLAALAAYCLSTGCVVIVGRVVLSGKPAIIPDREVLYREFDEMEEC
Sequence (P26664 1027-1657): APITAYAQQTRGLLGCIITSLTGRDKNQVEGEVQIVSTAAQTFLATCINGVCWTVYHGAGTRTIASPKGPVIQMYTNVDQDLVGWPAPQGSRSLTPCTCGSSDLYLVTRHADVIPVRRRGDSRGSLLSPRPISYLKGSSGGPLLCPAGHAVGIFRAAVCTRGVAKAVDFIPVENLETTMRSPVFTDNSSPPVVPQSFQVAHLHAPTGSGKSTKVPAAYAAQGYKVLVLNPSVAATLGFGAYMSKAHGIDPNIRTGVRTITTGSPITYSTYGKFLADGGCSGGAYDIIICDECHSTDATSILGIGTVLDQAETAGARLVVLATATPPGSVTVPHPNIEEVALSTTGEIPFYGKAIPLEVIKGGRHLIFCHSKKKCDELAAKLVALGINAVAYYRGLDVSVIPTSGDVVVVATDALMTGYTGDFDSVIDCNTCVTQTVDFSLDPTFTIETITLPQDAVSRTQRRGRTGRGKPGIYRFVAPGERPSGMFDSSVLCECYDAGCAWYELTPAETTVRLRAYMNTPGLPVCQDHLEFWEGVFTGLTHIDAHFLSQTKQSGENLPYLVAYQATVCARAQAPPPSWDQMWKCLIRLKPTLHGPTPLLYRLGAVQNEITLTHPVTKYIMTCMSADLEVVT
Assay: HCV NS3-4A protease assay
Format: biochemical
Settings: Protease IC50
Below: a set of entries, each annotated with reported IC50.
measurement type: IC50 (nM)

molecule	observed value
C=C[C@H]1C[C@@]1(NC(=O)[C@@H]1C[C@@]2(CN1C(=O)[C@@H](NC(=O)[C@@H](NC(=O)C(C)(C)N1CCOCC1)C1CCCCC1)C(C)(C)C)C(C)(C)C21CCC1)C(=O)NS(=O)(=O)C1CC1 [Compound 101]	1
C=C[C@H]1C[C@@]1(NC(=O)[C@@H]1C[C@@]2(CN1C(=O)[C@@H](NC(=O)[C@@H](NC(=O)c1nccn1C)C1CCCCC1)C(C)(C)C)C(C)(C)C21CCC1)C(=O)NS(=O)(=O)C1CC1 [Compound 103]	1.5
CC(C)(C)[C@H](NC(=O)[C@@H](NC(=O)C(C)(C)N1CCCC1)C1CCCCC1)C(=O)N1C[C@]2(C[C@H]1C(=O)NC1(C(=O)NS(=O)(=O)C3CC3)CC1)C(C)(C)C21CCC1 [Compound 3]	45
CCCC1(S(=O)(=O)NC(=O)[C@@]2(NC(=O)[C@@H]3C[C@@]4(CN3C(=O)[C@@H](NC(=O)[C@@H](NC(=O)[C@@H]3CCCCN3CC)C3CCCCC3)C(C)(C)C)C(C)(C)C43CCC3)C[C@H]2CC)CC1 [Compound 76]	6
C=C[C@@H]1C[C@]1(NC(=O)[C@@H]1C[C@@]2(CN1C(=O)[C@@H](NC(=O)[C@@H](NC(=O)c1c[nH]c(=O)[nH]1)C(C)(C)C)C(C)(C)C)C(C)(C)C21CCC1)C(=O)NS(=O)(=O)C1CC1 [Compound 44]	2
C=C[C@@H]1C[C@]1(NC(=O)[C@@H]1C[C@@]2(CN1C(=O)[C@@H](NC(=O)C(NC(=O)c1ccccc1Nc1ccccc1)C1CCCCC1)C(C)(C)C)C(C)(C)C21CCC1)C(=O)NS(=O)(=O)C1CC1 (stereo partly drawn) [Compound 124]	30
C=CCC(C)(NC(=O)[C@@H]1C[C@@]2(CN1C(=O)[C@@H](NC(=O)[C@@H](NC(=O)[C@@H]1CCCCN1C(C)C)C(C)(C)C)C(C)(C)C)C(C)(C)C21CCC1)C(=O)NS(=O)(=O)C1CC1 (stereo partly drawn) [Compound 86]	4050
CC[C@@H]1C[C@]1(NC(=O)[C@@H]1C[C@@]2(CN1C(=O)[C@@H](NC(=O)[C@@H](NC(=O)[C@@H]1CCCN1CC)C1CCCCC1)C(C)(C)C)C(C)(C)C21CCC1)C(=O)NS(=O)(=O)C1(C)CC1 [Compound 81]	0.6
CC(C)(C)[C@H](NC(=O)C1CCCCN1CCF)C(=O)N[C@H](C(=O)N1C[C@]2(C[C@H]1C(=O)N[C@]1(C(=O)NS(=O)(=O)C3CC3)CC=CCC1)C(C)(C)C21CCC1)C(C)(C)C (stereo partly drawn) [Compound 28]	3150

* * *

Biological target: HCV NS3-4A serine protease (full-length NS3-4A protein, genotype 1a, strain HCV-1) (Hepatitis C virus genotype 1a, UniProt P26664)
Construct: using the full-length NS3-4A protein (genotype 1a, strain HCV-1)
Assay: HCV NS3-4A protease assay
Format: biochemical
Conditions: Protease IC50
Below: a set of entries, each annotated with reported IC50.

molecule	unit abbrev	IC50
C=C[C@@H]1C[C@]1(NC(=O)[C@@H]1C[C@@]2(CN1C(=O)[C@@H](NC(=O)[C@@H](NC(=O)c1cocn1)C1CCCCC1)C(C)(C)C)C(C)(C)C21CCC1)C(=O)NS(=O)(=O)C1CC1	nM	1.5
C=C[C@@H]1C[C@]1(NC(=O)[C@@H]1C[C@@]2(CN1C(=O)[C@@H](NC(=O)C(NC(=O)c1cc(C(C)(C)C)nn1C)C1CCCCC1)C(C)(C)C)C(C)(C)C21CCC1)C(=O)NS(=O)(=O)C1CC1 (some centres unmarked)	nM	8
